Molecular target: human chorionic gonadotropin (hCG) heterodimer (Homo sapiens, UniProt P01215;P0DN86 P01215:25-116,P0DN86:21-165)
Sequence (P01215 25-116, chain 1 of 2, other chains not shown): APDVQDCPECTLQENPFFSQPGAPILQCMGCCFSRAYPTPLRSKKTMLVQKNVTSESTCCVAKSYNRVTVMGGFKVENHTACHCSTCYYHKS
Experiment: filter; conserved region mutated
Settings: tags: Calbiochem or Vitro Diagnostics (14,000 IU/mg); chain copies: alpha/beta heterodimer (stated); label: 32P
Excerpt: PCR products generated from the RNA population isolated after six cycles of selection were cloned into pUC18 and 43 clones were sequenced (Table 13). As with the high affinity ligands selected in the first SELEX experiment in this example, 37 of the sequenced ligands are capable of assuming a stem-loop structure which places the conserved, unselected, 13-nt sequence in the "loop" structure.
If the reported binding signal equals or exceeds 0.2 % bound at 100 nM, assign Y. If not, assign N.

Hi, just wondering whether 2nd generation ligand 95 (ssRNA, 2'-F all pyrimidines) RNA: GGGAGGACGAUGCGGGUUUUCCUACUAGUUGAAUGAUCCUUCUAGUUAGAUGCCAGACGACUCGCCCGA shows binding signal of 0.2 % bound at 100 nM or higher.
Y

Hi, just wondering whether 2nd generation ligand 59 (ssRNA, 2'-F all pyrimidines) RNA: GGGAGGACGAUGCGGUAACUCUUAAUUCUUGAACAAUCCUUGAAUUUAGCGGACCAGACGACUCGCCCGA shows binding signal of 0.2 % bound at 100 nM or higher.
Y

Hi, just wondering whether 2nd generation ligand 8 (ssRNA, 2'-F all pyrimidines) RNA: GGGAGGACGAUGCGGUUCGAUUCCAAGUUGAACGAUCCUCCUUUUGAUUAGACCAGACGACUCGCCCGA shows binding signal of 0.2 % bound at 100 nM or higher.
Y

Hi, just wondering whether 2nd generation ligand 37 (ssRNA, 2'-F all pyrimidines) RNA: GGGAGGACGAUGCGGAAUUCCCCCAAGAUUGAACGGUCCUUUCUCGCAGAUGUUCAGACGACUCGCCCGA shows binding signal of 0.2 % bound at 100 nM or higher.
N

Hi, just wondering whether 2nd generation ligand 84 (ssRNA, 2'-F all pyrimidines) RNA: GGGAGGACGAUGCGGUUGGUUAUCCAUGUUGAACGUUCCUUCAUGUCGAAUAUGCAGACGACUCGCCCGA shows binding signal of 0.2 % bound at 100 nM or higher.
Y

Hi, just wondering whether 2nd generation ligand 7 (ssRNA, 2'-F all pyrimidines) RNA: GGGAGGACGAUGCGGAUGAGCUUGAUAAUGGAACGAUCCUUUUAACGGUUCUUCCAGACGACUCGCCCGA shows binding signal of 0.2 % bound at 100 nM or higher.
N
